Recorded TGI, one value per entry.
- System: LOX IMVI melanoma
- TEST: NCI tumour cell line growth inhibition, 48 h

COc1c(Cl)ccc(Cl)c1-c1nnc(-c2c(Cl)c(Cl)c(Cl)c(Cl)c2-c2nc3ccc(C(=O)c4ccccc4)cc3[nH]2)o1 :: > 100 µM
Clc1cc(Cl)c2n[se]nc2c1 :: > 100 µM
COC(=O)C(=O)C(C(=O)C(=O)Nc1ccc(Cl)cc1Cl)c1nc2ccc(Cl)cc2[nH]c1=O (centres undefined) :: > 100 µM

Lookup: TGI / LOX IMVI melanoma / COc1cc(/C=C/C(=O)OC[C@]23O[C@H]2[C@@H](OC2OC(C)C(O)C(O)C2O)C2C=CO[C@@H](OC4OC(CO)C(O)C(O)C4O)C23)ccc1O (some centres undefined)
> 100 µM

Request: TGI, test system LOX IMVI melanoma, entry O=C(O)/C=C/C(=O)Nc1cccc2c1-c1ccccc1C2=O
> 100 µM

API: value(readout=TGI, system=LOX IMVI melanoma) for record COc1ccc(-c2cc(-c3ccco3)c(C#N)c(=O)n2C2OC(OC(=O)c3ccccc3)C(OC(=O)c3ccccc3)C2OC(=O)c2ccccc2)cc1 (centres undefined)
> 100 µM

Provide the documented TGI with LOX IMVI melanoma as the system for Cc1ccc(N=c2oc3c(ccc4ccccc43)nc2Nc2ccc(C)cc2)cc1
> 100 µM

Lab note: need TGI for O=c1[nH]c(=O)n(COCCO)cc1-c1ccccc1 on LOX IMVI melanoma, anyone have it?
> 100 µM

Form field: TGI recorded for CS(=O)(=O)c1nc(-c2cc3c(c(S(C)(=O)=O)n2)CCC3)cc2c1CCC2 with LOX IMVI melanoma (enter value)
> 100 µM
